# Tested on: LOX IMVI melanoma
Use one of these outcomes when replying: active, inactive

Here's what some known entries look like.
[[record]]
smiles_representation = "CCCNc1nc(N(C)O)nc(N(C)O)n1"
class_assignment = "inactive"

[[record]]
smiles_representation = "CCOc1ccc(Cc2nccc3cc(OCC)c(OCC)cc23)cc1OCC"
class_assignment = "inactive"

[[record]]
smiles_representation = "O=C(Oc1cccnc1)c1ccccc1Nc1ccnc(C(F)(F)F)c1"
class_assignment = "active"


## Input Please let me know the test result on file for Nc1nc(N)c2cc(CNc3ccc(Cl)c(Cl)c3)ccc2n1 .
## Output active

## Input Please let me know the test result on file for Fc1ccc(-c2nc(-c3nc4ccc(Cl)cc4[nH]3)cc3c2[nH]c2ccccc23)cc1 .
## Output inactive

## Input Please let me know the test result on file for CCOP(=O)(CCP(=O)(OCC)OCC)OCC.C[CH2][Sn]([Cl])([Cl])[CH2]C .
## Output inactive
